- assay.system: Apelin receptor (Homo sapiens)
- Sequence (P35414 whole entry): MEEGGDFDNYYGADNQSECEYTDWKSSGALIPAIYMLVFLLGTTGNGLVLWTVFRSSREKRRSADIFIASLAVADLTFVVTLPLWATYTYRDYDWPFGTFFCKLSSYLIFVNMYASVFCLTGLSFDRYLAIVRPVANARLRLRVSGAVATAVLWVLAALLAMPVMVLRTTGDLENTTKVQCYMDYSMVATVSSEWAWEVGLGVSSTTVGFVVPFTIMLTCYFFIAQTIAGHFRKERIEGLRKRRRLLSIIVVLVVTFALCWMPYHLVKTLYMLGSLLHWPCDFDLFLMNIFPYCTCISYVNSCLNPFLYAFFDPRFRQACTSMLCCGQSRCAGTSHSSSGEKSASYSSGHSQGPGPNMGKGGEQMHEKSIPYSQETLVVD
- protocol: Agonist activity at APJ receptor (unknown origin) expressed in CHO cells co-expressing with Calphaq16 assessed as calcium mobilization
- Format: functional, cell-based
- study.conditions: read-out: EC50
Square brackets hold non-standard residues; d marks the D form. Peptide text beside a SMILES is read from it. Nle = CCCC[C@H](N)C(=O)O
measured.parameter: EC50 (nM)
Lab book: enter the figure in nM, no units written.

compound | unit.symbol | EC50
CCCC[C@H](NC(=O)[C@@H]1CCCN1C(=O)[C@H](CCCNC(=N)N)NC(C)=O)C(=O)N[C@@H](CC(C)C)C(=O)N[C@@H](C)C(=O)N[C@@H](C)C(=O)N[C@@H](CCCCN)C(=O)NCC(=O)N1CCC[C@H]1C(=O)N[C@@H](CC(C)C)C(N)=O (Ac-RP[Nle]LAAKGPL-NH2) | nM | 3.2

Attention now shifts to the item below.
Query: Which EC50 reading was recorded for the compound CCCC[C@H](NC(=O)[C@H](C)NC(=O)[C@H](C)NC(=O)[C@H](CC(C)C)NC(=O)[C@H](CCCCN)NC(=O)[C@@H]1CCCN1C(=O)[C@H](CCCNC(=N)N)NC(C)=O)C(=O)NCC(=O)N1CCC[C@H]1C(=O)N[C@@H](CC(C)C)C(N)=O (Ac-RPKLAA[Nle]GPL-NH2) ?
Reply: 2.2

Provenance of the data: ChEMBL document CHEMBL3259718
